Data provenance is PubChem BioAssay.

# ASSAY REMARKS: glutamate transport activators, MN-1 cells, MN-1 cell line (AID 1612);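 note: tested at 1 µM final; 0% = mean of DMSO vehicle wells on each plate; positive means more glutamate uptake than control and negative means less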
# SETTINGS: MN-1 motor neuron cells, stronger effect = higher value
For each record, write down the corresponding glutamate uptake change.
Answer with a number only, understood to be in %.

Entry COc1ccccc1OCC(O)CO (centres undefined) — recorded glutamate uptake change = -12.9

Cc1cccc(N(C)C(=S)Oc2ccc3ccccc3c2)c1 has a reported glutamate uptake change of -6.25

Reported glutamate uptake change of Cc1cc(C(C)(C)C)cc(C)c1CC1=NCCN1 : 16.9

Briefly, glutamate uptake change measured for C[n+]1ccccc1/C=N/O : -3.95

Short answer for CC(Cc1cccc(C(F)(F)F)c1)NCCOC(=O)c1ccccc1 (centres undefined) : glutamate uptake change was 15.6

Given item Nc1ccc(C(=O)O)cc1 , the value recorded as its glutamate uptake change is 15.6

In plain terms, C/C=C(/C(=C/C)c1ccc(O)cc1)c1ccc(O)cc1 has a documented glutamate uptake change of -21.7

glutamate uptake change recorded for this molecule, NS(=O)(=O)c1cc2c(cc1Cl)NC(CSCc1ccccc1)=NS2(=O)=O , is -3.22

Record CCn1cc(C(=O)O)c(=O)c2cnc(N3CCNCC3)nc21 , field glutamate uptake change: -1.23

The molecule listed as Cc1c(C(N)=O)cc([N+](=O)[O-])cc1[N+](=O)[O-] shows glutamate uptake change equal to -10.4

glutamate uptake change reported for this molecule Oc1c(I)cc(I)c2cccnc12 : 78.2

Reported glutamate uptake change of COc1ccc2[nH]cc(CCNC(C)=O)c2c1 : 7.67

Short answer for CN1CCN(CCCN2c3ccccc3Sc3ccc(Cl)cc32)CC1 : glutamate uptake change was 0

Per the record, COc1ccc2c(c1)c(CC(=O)OCC(=O)O)c(C)n2C(=O)c1ccc(Cl)cc1 has glutamate uptake change of -11

Entry CN1CCN2c3ccccc3Cc3ccccc3C2C1 (centres undefined) — recorded glutamate uptake change = 12.1

The molecule identified as CCCc1ncc(C[n+]2ccccc2C)c(N)n1 registered its glutamate uptake change at 5.76

Item: COc1cnc(NS(=O)(=O)c2ccc(N)cc2)nc1 | glutamate uptake change: -0.58

Record O=C1C(O)=C(O)C(=O)C(O)=C1O , field glutamate uptake change: 5.54

# glutamate uptake change of CCO/C([O-])=N/c1c[n+](N2CCOCC2)no1 = 3.92

// CC(C)COCC(CN(Cc1ccccc1)c1ccccc1)N1CCCC1 (centres undefined) : glutamate uptake change value = 12.6

Summary for this molecule, NC(=O)NC1NC(=O)NC1=O (centres undefined) : glutamate uptake change is -8.53

// glutamate uptake change value for NC(=O)NC(=O)Cc1ccccc1 : -11.7

For this molecule ( CCN(CC)CCNC(=O)c1cc(Br)c(N)cc1OC ), measured glutamate uptake change is -4.45

Lab note: measured glutamate uptake change of Nc1ccc(S(=O)(=O)Nc2ccnn2-c2ccccc2)cc1 was 16.6
